experiment: human hepatoma cell viability loss – ATP luminescence, cytotoxicity control for P. falciparum antimalarial project, primary screen (AID 2303); conditions: HepG2 viability, 24-48 h, at 10 µM, stronger effect = higher value;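 also: 0% = DMSO wells and 100% = digitonin-killed cells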
Experimental readout: inhibition (%)
Expressed in %, but write only the number.

Compound structure	inhibition (%)
COc1cc2nc(NCc3ccc(S(N)(=O)=O)cc3)nc(Nc3ccc(Oc4ccccc4)cc3)c2cc1OC	14

As a next step, examine the molecule that follows.
Q) For the molecule shown here, CCn1ncc(Cl)c1CN(C)S(=O)(=O)c1ccc2ccccc2c1 , give the reported inhibition.
A) 16

* * *

assay: antimalarial activity against Dd2 strain (AID 2302);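 also: 0% = DMSO untreated growth and 100% = chloroquine plus artemisinin killed control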; details: P. falciparum Dd2 in RBCs, LDH growth readout, 72 h; at 2 µM
Activity calls are given as the source filed them.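 How the source made its calls: active means growth inhibition above 50% at the single 2 µM test dose, taken to imply half-maximal potency below 2 µM; inactive means the rest.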
Outcomes you can answer with include only these: active, inactive

Past entries and their recorded results:
Molecule	Classification
Cc1cccc2[nH]c(-c3ccc(-c4ccc(NC(=O)Nc5ccsc5)cc4)cc3)nc12	active
Nc1ccnc(N2CCC(CCOc3cc(C(F)(F)F)nc4c(C(F)(F)F)cccc34)CC2)c1	inactive
COc1cc(C(=O)N2COCC(CCCN3CCC(N4CCCC4)CC3)(c3ccc(Cl)c(Cl)c3)C2)cc(OC)c1OC (configuration not stated)	active

Q) Give the logged outcome of this assay for the following molecule: C[C@@H]1CN(c2ccnc3ccc(Sc4ccc(Oc5ccccc5)cc4)cc23)C[C@H](C)N1
A) active

Q) Give the logged outcome of this assay for the following molecule: O=S(=O)(c1c(Cl)cc(Cl)cc1Cl)N1CCCCC(c2ccc(Cl)cc2)=N1
A) active

Q) Give the logged outcome of this assay for the following molecule: COc1ccc2nccc([C@@H](O)CN3CCC(NC(=O)[C@@H]4Cc5ccccc5CN4C(=O)OC(C)(C)C)CC3)c2c1
A) active

Q) Give the logged outcome of this assay for the following molecule: Cc1cc(NN=Cc2cccc(F)c2)c2cccc(C)c2n1
A) active

Q) Give the logged outcome of this assay for the following molecule: O=C(Nc1ccc(CCN2CCC(c3nc(COCC(F)(F)F)c(-c4ccccc4)o3)CC2)cc1)c1ccc(F)cc1
A) inactive

Data origin, for the record: PubChem BioAssay
